Test system: Fibroblast
Assay: Multiplex assay against human fibroblast
Format: toxicity, cell-based
Details: 12 h, 1 µM, compound concentration 1 uM, replicate 1
parameter: Population Fragmented Nuclei (%)
All answers are understood in %, so give the number only.

// below: answered molecules
molecule="CC(=O)Nc1cccc2c1c(Sc1ccc(Cl)cc1)c(C)n2CC(=O)O [AZD1981]" endpointvalue=18
molecule="CC[C@@H](C)Nc1nc(C)nc2c(-c3ccc(OC)nc3C)c(C)nn12 [PEXACERFONT]" endpointvalue=12
molecule="Cc1sc2c(c1C)C(c1ccc(Cl)cc1)=N[C@@H](CC(=O)NCCCCCCCCNC(=O)COc1cccc3c1C(=O)N(C1CCC(=O)NC1=O)C3=O)c1nnc(C)n1-2 (some centres undefined)" endpointvalue=10
molecule=COc1ccccc1N1CCN(C[C@@H](C(=O)NC(C)(C)C)c2ccccc2)CC1.Cl.Cl endpointvalue=12
molecule="CC(C)(C)c1cc(NC(=O)Nc2ccc(-c3cn4c(n3)sc3cc(OCCN5CCOCC5)ccc34)cc2)no1 [QUIZARTINIB]" endpointvalue=16

Entry CC(C)c1noc(N2CCC(COc3ccc(-c4ccc(S(C)(=O)=O)cc4)nc3)CC2)n1 [GSK-1292263] has what Population Fragmented Nuclei (%)? 14

Entry Cc1cccc(NC(=O)CN2CCC(c3ccccn3)CC2)c1.Cl.Cl has what Population Fragmented Nuclei (%)? 16

Entry CCCCCC(O)/C=C/[C@H]1C(=O)CC(O)C1C/C=C\CCCC(=O)O (some centres undefined) has what Population Fragmented Nuclei (%)? 24

Entry O=C(CCCc1ccccc1)Nc1nc2ccccc2c(=O)s1 has what Population Fragmented Nuclei (%)? 9

----------
Readings of Population Fragmented Nuclei (%) for the listed molecules
System: Fibroblast
Experiment: Multiplex assay against human fibroblast
Format: toxicity, cell-based
Settings: 24 h, 10 µM, compound concentration 10 uM, replicate 2

// below: answered molecules
molecule=N#Cc1c(Oc2cccc(OS(=O)(=O)CCCC(F)(F)F)c2)cccc1C(F)(F)F endpointvalue=40%
molecule=Cc1cnc(-c2cc(N3CCN(C(=O)CCS(C)(=O)=O)CC3)ncc2Cl)c(C)c1 endpointvalue=19%
molecule=COc1cccc2c1c(NS(=O)(=O)c1ccc(Cl)s1)nn2Cc1cccc(CNC(=O)C(C)(C)O)c1 endpointvalue=22%
molecule="Cl.NCCc1ccc(O)c(O)c1 [DOPAMINE HYDROCHLORIDE]" endpointvalue=37%
molecule=CC(/C=C1\SC(=S)N(CCCC(=O)Nc2ccc(C(=O)O)c(O)c2)C1=O)=C\c1ccccc1 endpointvalue=20%
molecule=O=C1[C@H](Cc2ccc(O)cc2)N2C(=O)CCN(C(=O)NCc3ccccc3)[C@H]2CN1Cc1cccc2ccccc12 endpointvalue=25%
molecule=CC(C)(C)c1cc(NC(=O)Nc2ccc(-c3cn4c(n3)sc3cc(OCCN5CCOCC5)ccc34)cc2)no1 endpointvalue=40%
molecule=CCCCC(=O)N(Cc1ccc(-c2ccccc2-c2nnn[nH]2)cc1)[C@H](C(=O)O)C(C)C endpointvalue=25%

Entry COc1ccccc1N1CCN(C[C@@H](C(=O)NC(C)(C)C)c2ccccc2)CC1.Cl.Cl has what Population Fragmented Nuclei (%)? 39%

Entry Br.CS(=O)(=O)Nc1c(O)ccc2c1CCCC2C1=NCCN1 (stereo unspecified) has what Population Fragmented Nuclei (%)? 41%

Entry NCCc1cn(S(=O)(=O)c2c(Cl)nc3sccn23)c2ccccc12.O=C(O)C(=O)O has what Population Fragmented Nuclei (%)? 30%

Entry CN(C)C(=O)Cn1cc(-c2ccc(-c3cncc4ccccc34)cc2)cn1 has what Population Fragmented Nuclei (%)? 41%

Entry CCCCCC(O)/C=C/[C@H]1C(=O)CC(O)C1C/C=C\CCCC(=O)O (stereo partly specified) has what Population Fragmented Nuclei (%)? 18%

----------
System: HEK-293T
Experiment: Multiplex assay against HEK293T
Format: toxicity, cell-based
Details: human, 24 h, 10 µM, compound concentration 10 uM, replicate 1
parameter: Population Fragmented Nuclei (%)
All answers are understood in %, so give the number only.

molecule=N#Cc1cc(F)cc(-c2nc(-c3ccc(F)cn3)no2)c1 endpointunit=% endpointvalue=10

Entry Cl.NCCc1ccc(O)c(O)c1 [DOPAMINE HYDROCHLORIDE] has what Population Fragmented Nuclei (%)? 7

Entry O=C(NCCN1CCC(n2c(=O)[nH]c3cc(Cl)ccc32)CC1)c1ccc(F)cc1 [HALOPEMIDE] has what Population Fragmented Nuclei (%)? 8

Entry O=C1[C@H](Cc2ccc(O)cc2)N2C(=O)CCN(C(=O)NCc3ccccc3)[C@H]2CN1Cc1cccc2ccccc12 has what Population Fragmented Nuclei (%)? 7

Entry Cc1onc(-c2ccccc2Cl)c1C(=O)N(C)c1ccc(Cl)cc1 has what Population Fragmented Nuclei (%)? 8

Entry CC(/C=C1\SC(=S)N(CCCC(=O)Nc2ccc(C(=O)O)c(O)c2)C1=O)=C\c1ccccc1 has what Population Fragmented Nuclei (%)? 8

Entry N#Cc1c(Oc2cccc(OS(=O)(=O)CCCC(F)(F)F)c2)cccc1C(F)(F)F has what Population Fragmented Nuclei (%)? 9

Entry COC[C@@H](c1ccc(C(F)(F)F)cc1)N1CCN(C2(C)CCN(C(=O)c3c(C)ncnc3C)CC2)C[C@@H]1C.O=C(O)/C=C\C(=O)O [VICRIVIROC MALEATE] has what Population Fragmented Nuclei (%)? 6

Entry O=C(CCCc1ccccc1)Nc1nc2ccccc2c(=O)s1 has what Population Fragmented Nuclei (%)? 10

----------
Tested on: Fibroblast
Assay: Multiplex assay against human fibroblast
Assay type: toxicity, cell-based
Details: 12 h, 10 µM, compound concentration 10 uM, replicate 1
Rule for this label: yes (1) means Population Apoptotic (%) is less than 40%; no (0) means Population Apoptotic (%) is at least 40%.

// below: answered molecules
molecule=NCCc1cn(S(=O)(=O)c2c(Cl)nc3sccn23)c2ccccc12.O=C(O)C(=O)O classname="no (0)"
molecule="O=C(NCCN1CCC(n2c(=O)[nH]c3cc(Cl)ccc32)CC1)c1ccc(F)cc1 [HALOPEMIDE]" classname="no (0)"
molecule="CN[C@@H](C)C(=O)N[C@H](C(=O)N1CCC[C@H]1C(=O)Nc1snnc1-c1ccccc1)C1CCCCC1 [GDC-0152]" classname="yes (1)"
molecule="CC(C)(C)c1cc(NC(=O)Nc2ccc(-c3cn4c(n3)sc3cc(OCCN5CCOCC5)ccc34)cc2)no1 [QUIZARTINIB]" classname="no (0)"

Lab note: confirm whether the reported Population Apoptotic (%) for this molecule is below 40%, equality not counting. molecule: COc1cccc2c1c(NS(=O)(=O)c1ccc(Cl)s1)nn2Cc1cccc(CNC(=O)C(C)(C)O)c1 no (0)

Lab note: confirm whether the reported Population Apoptotic (%) for this molecule is below 40%, equality not counting. molecule: Cl.N=C(N)NC(=O)Cc1c(Cl)cccc1Cl [GUANFACINE HYDROCHLORIDE] no (0)

----------
System: Fibroblast
Test: Multiplex assay against human fibroblast
Type: toxicity, cell-based
Conditions: 12 h, 10 µM, compound concentration 10 uM, replicate 1
Rule for this label: satisfied means Population Mitochondria Different-Phenotype (%) is less than 10%; not satisfied means Population Mitochondria Different-Phenotype (%) is at least 10%.

Lab note: confirm whether the reported Population Mitochondria Different-Phenotype (%) for this molecule is below 10%, equality not counting. molecule: CC[C@@H](C)Nc1nc(C)nc2c(-c3ccc(OC)nc3C)c(C)nn12 [PEXACERFONT] not satisfied

Lab note: confirm whether the reported Population Mitochondria Different-Phenotype (%) for this molecule is below 10%, equality not counting. molecule: O=C(NCCN1CCC(n2c(=O)[nH]c3cc(Cl)ccc32)CC1)c1ccc(F)cc1 [HALOPEMIDE] not satisfied

Lab note: confirm whether the reported Population Mitochondria Different-Phenotype (%) for this molecule is below 10%, equality not counting. molecule: O=C(CCCc1ccccc1)Nc1nc2ccccc2c(=O)s1 satisfied

Lab note: confirm whether the reported Population Mitochondria Different-Phenotype (%) for this molecule is below 10%, equality not counting. molecule: Br.CS(=O)(=O)Nc1c(O)ccc2c1CCCC2C1=NCCN1 (stereo not given) satisfied

----------
System: U2OS
Assay: Multiplex assay against U2OS
Type: toxicity, cell-based
Conditions: human, 24 h, 1 µM, compound concentration 1 uM, replicate 2
parameter: Population Membrane Permeable-Phenotype (%)
All answers are understood in %, so give the number only.

Entry COC[C@@H](c1ccc(C(F)(F)F)cc1)N1CCN(C2(C)CCN(C(=O)c3c(C)ncnc3C)CC2)C[C@@H]1C.O=C(O)/C=C\C(=O)O [VICRIVIROC MALEATE] has what Population Membrane Permeable-Phenotype (%)? 10

Entry O=C(NCCN1CCC(n2c(=O)[nH]c3cc(Cl)ccc32)CC1)c1ccc(F)cc1 [HALOPEMIDE] has what Population Membrane Permeable-Phenotype (%)? 10

Entry CC(=O)Nc1cccc2c1c(Sc1ccc(Cl)cc1)c(C)n2CC(=O)O has what Population Membrane Permeable-Phenotype (%)? 4

Entry CCCOc1ccc2[nH]cc(C3=CCNCC3)c2n1.Cl has what Population Membrane Permeable-Phenotype (%)? 3

Entry N#Cc1cc(F)cc(-c2nc(-c3ccc(F)cn3)no2)c1 has what Population Membrane Permeable-Phenotype (%)? 2
